- Tested on: Chlorella protothecoides
- assay-info: Effect of hormone concentrations on growth rate of Chlorella protothecoides, heterotrophic
- Type: cell-based
- assay-conditions: 0.1 ng, 48 hours, control 1.54
measurement-name: growth rate
One number for each entry.

Reference set, count: 2
compound	growth rate
O=C(O)Cc1c[nH]c2ccccc12 [Indole-3-acetic acid, indole-3-acetic acid]	1.61
O=C(O)Cc1cccc2ccccc12 [1-Naphthaleneacetic acid]	1.54

Report growth rate for each item below.
1. c1coc(CNc2ncnc3[nH]cnc23)c1 [Kinetin, kinetin]
2. c1ccc(CNc2ncnc3nc[nH]c23)cc1 [6-Benzylaminopurine, 6-benzylaminopurine]
3. C=C1C[C@]23C[C@@]1(O)CC[C@H]2[C@@]12C=C[C@H](O)[C@@](C)(C(=O)O1)[C@H]2[C@@H]3C(=O)O [Gibberellic acid]
4. O=C(O)COc1ccc(Cl)cc1Cl [2,4-Dichlorophenoxyacetic, 2,4-dichlorophenoxyacetic acid]

Data returned:
1: 1.50; 2: 1.54; 3: 1.52; 4: 1.53

From: patent US20210307272A1
